Assign pIC50 to each entry below.
- system name: central benzodiazepine receptors
- test protocol: inhibition of specific binding of [3H] flunitrazepam to central benzodiazepine receptors, rat brain
- experimental setup: 4° C., pH 7.4
pIC50: −log10 of the molar value.

Input line: Provide the documented pIC50 with central benzodiazepine receptors as the system for CCCN(CCC)C(=O)C(C)Nc1c(C(=O)OCC)cnc2cc(OC)c(OC)cc12 (stereo not shown)
Output line: < 4.70

Input line: Query for central benzodiazepine receptors: what pIC50 does the record show for `CCOc1ccc(N(C)C(=O)CNc2c(C(=O)c3ccccc3)cnc3cc(Cl)ccc23)cc1` ?
Output line: < 5.00

Input line: Given the entry CCCN(CCC)C(=O)C(C)Nc1c(C(=O)OCC)cnc2nc(Cl)ccc12 (stereo not shown) , what pIC50 was observed with central benzodiazepine receptors?
Output line: < 4.70

Input line: Return pIC50 measured with central benzodiazepine receptors given this compound: `CCN(C(=O)CNc1c(C(=O)c2ccccc2)cnc2cccnc12)c1ccc(Cl)cc1`
Output line: < 5.00

Input line: Any idea what pIC50 came out for `CCCN(CCC)C(=O)CN(C)c1c(C(=O)c2ccccc2)cnc2cccnc12` on central benzodiazepine receptors?
Output line: < 5.00

Input line: Enter reported pIC50 observed with central benzodiazepine receptors for `CN(C(=O)CNc1c(C(=O)c2ccccc2)cnc2ccncc12)c1ccc(Cl)cc1`
Output line: < 5.00

Input line: Under central benzodiazepine receptors: pIC50 value of CCCN(CCC)C(=O)C(C)Nc1c(C(=O)OCC)cnc2cc(OC)ccc12 (stereo not shown) ?
Output line: < 4.70

Input line: So what pIC50 did `CN(C(=O)CNc1c(C(=O)c2ccccc2)cnc2cc(Br)ccc12)c1ccc(Cl)cc1` get with central benzodiazepine receptors?
Output line: < 5.00

Input line: // lookup pIC50 | system=central benzodiazepine receptors | key= COc1ccc(N(C)C(=O)CNc2c(C(=O)c3ccccc3)cnc3cc(Cl)ccc23)cc1 [compound 27196]
Output line: < 5.00

Input line: What reported pIC50 corresponds to `CN(CC(=O)N(C)c1ccc(Cl)cc1)c1c(C(=O)c2ccccc2)cnc2nc(Cl)ccc12` on central benzodiazepine receptors?
Output line: 4.31

Input line: Reported pIC50 for central benzodiazepine receptors, given CCCN(CCC)C(=O)C(C)Nc1c(C(=O)c2ccccc2)cnc2ccc(Cl)cc12 (stereo not shown) ?
Output line: 4.93

Input line: Under central benzodiazepine receptors: pIC50 value of `CN(C(=O)CNc1c(C(=O)c2ccccc2)cnc2nc(Cl)ccc12)c1ccccc1Cl` ?
Output line: 5.45

Input line: // lookup pIC50 | system=central benzodiazepine receptors | key= `CCCN(CCC)C(=O)CNc1c(C(=O)c2ccccc2)cnc2cc(Br)cnc12`
Output line: 4.89

Input line: What value of pIC50 on central benzodiazepine receptors does `CN(C(=O)CCNc1c(C(=O)c2ccccc2)cnc2cccnc12)c1ccc(Cl)cc1` have?
Output line: < 5.00

Input line: Provide value of pIC50 for this record tested with central benzodiazepine receptors: CCCN(CCC)C(=O)C(C)Nc1c(C(=O)OCC)c(-c2ccccc2)nc2ccc(Cl)cc12 (stereo not shown)
Output line: < 4.70

Input line: Which pIC50 is reported with central benzodiazepine receptors for this entry: CC(Nc1c(C(=O)c2ccccc2)cnc2nc(Cl)ccc12)C(=O)N(C)c1ccc(Cl)cc1 (stereo not shown) ?
Output line: < 5.00
